Assay: Quantitative high throughput screen for delayed death inhibitors of the malarial parasite plastid: Hit Validation with 3D7 at 96 hr using Flow Cytometry
Settings: P. falciparum 3D7 in erythrocytes, SYBR/MitoTracker flow cytometry
Active and inactive are the calls of the source. The call rests on the fitted dose curve; in most records, active means well fitted curve in the direction sought with a large enough effect; inactive means flat fitted curve, though single readings scatter.
quantity measured: Potency

compound="CN(C)c1ccc(CN(C(=O)c2ccccc2Br)C2CCS(=O)(=O)C2)cc1 (centres undefined)" reported_value="18.2 µM (active)"
compound="CCC(=O)OC1C(N(C)C)CC(C)O[C@H]1O[C@H]1[C@H](C)[C@@H](O[C@H]2CC(OC)[C@@H](O)C(C)O2)[C@H](C)C(=O)O[C@@H](CC)[C@](C)(O)[C@@H](O)[C@H](C)C(=O)[C@@H](C)C[C@]1(C)O (some centres undefined)" reported_value="11.4 µM (active)"
compound=Clc1ccc(-c2c[n+](Cc3ccc(Cl)cc3Cl)c3n2CCCCC3)cc1 reported_value="0.366 µM (active)"
compound=CCOc1ccc(NC(=O)C[n+]2ccc(N(C)C)cc2)cc1 reported_value="0.135 µM (active)"
compound=COCCNC(=O)c1cccc(OC2CCN(Cc3cccc(SC)c3)CC2)c1 reported_value="5.37 µM (active)"
compound=CC1=Nc2cc(C(=O)N3CCCC3)ccc2Sc2ccc(C)cc21 reported_value="18 µM (active)"
compound=CCN(CC)C(=O)COc1coc(CN2CCN(c3cccc(Cl)c3)CC2)cc1=O reported_value="17.2 µM (active)"
compound=COc1ccc(C(=O)N2CCN(S(=O)(=O)c3ccc(C)cc3C)CC2)cc1OC reported_value="45.8 µM (active)"
compound=CCOc1ccc(S(=O)(=O)Nc2cc(S(=O)(=O)N(CC)CC)ccc2N2CCCC2)cc1 reported_value="6.38 µM (active)"

###

Test: Quantitative high throughput screen for delayed death inhibitors of the malarial parasite plastid: Hit Validation with 3D7 at 96 hr using Flow Cytometry
Conditions: P. falciparum 3D7 in erythrocytes, SYBR/MitoTracker flow cytometry
The source made the active and inactive calls. The call rests on the fitted dose curve; in most records, active means well fitted curve in the direction sought with a large enough effect; inactive means flat fitted curve, though single readings scatter.
Parameter: Potency. Scope: all listed entries.
quantity measured: Potency

compound="CO[C@@H]1[C@@H](OC2OC(C)C(OC3CC(C)(O)C(OC(=O)CC(C)C)C(C)O3)C(N(C)C)C2O)[C@@H](CC=O)C[C@@H](C)C(=O)/C=C\\C2O[C@H]2C[C@@H](C)OC(=O)C[C@H]1OC(C)=O (some centres undefined)" quantity_measured=Potency reported_value="0.178 µM (active)"
compound=O=C(CSc1ccc(-c2cccnc2)nn1)Nc1ccccc1C(F)(F)F quantity_measured=Potency reported_value="4.65 µM (active)"
compound=O=C(Nc1ccccc1N1CCOCC1)c1cccc(S(=O)(=O)N2CCOCC2)c1 quantity_measured=Potency reported_value="11 µM (active)"
compound=Cc1ccc(-n2c(-c3ccc(Cl)cc3)c[n+]3c2CCC3)cc1 quantity_measured=Potency reported_value="0.15 µM (active)"
compound=COc1ccc(Nc2nnc(-c3ccc(C)cc3)c3ccccc23)cc1C(=O)N1CCCCC1 quantity_measured=Potency reported_value="20 µM (active)"
compound=CCCCOc1ccc(N2C(N)=NC(N)=NC23CCCCC3)cc1 quantity_measured=Potency reported_value="15.8 µM (active)"
compound="COc1ccc(CNC(=O)C2CCC(CNS(=O)(=O)c3cccc4cccnc34)CC2)cc1 (centres undefined)" quantity_measured=Potency reported_value="16.5 µM (active)"
compound=CCCCN(CCCNC(=O)C1CCN(C(=O)c2cc3sccc3n2C)CC1)Cc1ccccc1 quantity_measured=Potency reported_value="0.617 µM (active)"
compound=Brc1cccc(OCCCCN2CCCCC2)c1 quantity_measured=Potency reported_value="22.7 µM (active)"

###

Quick reference for Potency among some compounds
Assay: Quantitative high throughput screen for delayed death inhibitors of the malarial parasite plastid: Hit Validation with 3D7 at 96 hr using Flow Cytometry
Conditions: P. falciparum 3D7 in erythrocytes, SYBR/MitoTracker flow cytometry
Activity calls are given as the source filed them. The call rests on the fitted dose curve; in most records, active means well fitted curve in the direction sought with a large enough effect; inactive means flat fitted curve, though single readings scatter.
quantity measured: Potency

item_smiles=CCOc1ccc(C(=O)Nc2ccc(N3CCN(C)CC3)cc2)cc1 quantity_measured=Potency reported_value="16.5 µM (active)"
item_smiles=O=C(c1ccc([N+](=O)[O-])cc1)n1nc(-c2ccccc2)nc1NCc1ccc(F)cc1 quantity_measured=Potency reported_value="19.3 µM (active)"
item_smiles=c1csc(CNc2ncnc3nc[nH]c23)c1 quantity_measured=Potency reported_value="23.4 µM (active)"
item_smiles=COc1ccccc1N1CCN(CCC(=O)Nc2ccc(F)cc2)CC1 quantity_measured=Potency reported_value="15.7 µM (active)"
item_smiles=COc1cccc(CN2CCN(c3nc4nonc4nc3N3CCCCC3)CC2=O)c1 quantity_measured=Potency reported_value="1 µM (active)"
item_smiles=Cc1ccc(CN2CCC(n3nccc3NC(=O)c3ccccc3C)CC2)o1 quantity_measured=Potency reported_value="20.7 µM (active)"
item_smiles=CN(C)S(=O)(=O)c1cc(NC(=O)C2=COCCO2)ccc1Cl quantity_measured=Potency reported_value="15.9 µM (active)"
